molecular target: cSRC(h) (Homo sapiens); test: Kinase Profiling Assay; format: biochemical; details: 100 μM
// % activity lookup, one value per entry
PROPERTY MEASURED: % activity

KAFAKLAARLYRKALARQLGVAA [MMI-0400]: 14%
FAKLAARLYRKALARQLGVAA [MMI-0300]: 26%
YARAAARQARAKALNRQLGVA [MMI-0200]: 32%
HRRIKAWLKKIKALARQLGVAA [MMI-0500]: 30%

====

Reported values of % activity for individual entries
molecular target: Ret (V804L)(h) (Homo sapiens, UniProt P07949, V804L); test: Kinase Profiling Assay; format: biochemical; details: 100 μM
PROPERTY MEASURED: % activity

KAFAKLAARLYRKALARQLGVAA [MMI-0400]: 73%
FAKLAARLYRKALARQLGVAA [MMI-0300]: 79%
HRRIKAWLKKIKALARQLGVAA [MMI-0500]: 20%
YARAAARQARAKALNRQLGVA [MMI-0200]: 100%

====

% activity values for the sequences below.
target: MSSK1(h) (Homo sapiens, UniProt Q9UPE1); assay: Kinase Profiling Assay; format: biochemical; conditions: 100 μM
Sequence (Q9UPE1 whole entry): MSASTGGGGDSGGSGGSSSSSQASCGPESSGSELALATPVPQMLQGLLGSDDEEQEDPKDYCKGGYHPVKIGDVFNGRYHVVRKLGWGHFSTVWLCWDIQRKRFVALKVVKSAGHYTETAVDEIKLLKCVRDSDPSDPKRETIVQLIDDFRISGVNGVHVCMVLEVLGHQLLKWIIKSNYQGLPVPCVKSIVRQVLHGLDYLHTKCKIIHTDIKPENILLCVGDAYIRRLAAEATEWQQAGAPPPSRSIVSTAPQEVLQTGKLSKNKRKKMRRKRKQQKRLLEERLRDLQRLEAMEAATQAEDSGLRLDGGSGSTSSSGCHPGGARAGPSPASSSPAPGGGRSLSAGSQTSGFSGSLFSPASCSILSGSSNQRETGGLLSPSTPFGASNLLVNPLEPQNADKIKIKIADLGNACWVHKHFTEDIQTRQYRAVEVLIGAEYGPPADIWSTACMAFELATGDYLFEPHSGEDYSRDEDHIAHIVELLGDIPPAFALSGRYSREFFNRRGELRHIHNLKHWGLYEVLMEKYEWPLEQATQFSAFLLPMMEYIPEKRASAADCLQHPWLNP
PROPERTY MEASURED: % activity (%)

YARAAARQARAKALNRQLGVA [MMI-0200]: 100
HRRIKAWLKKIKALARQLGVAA [MMI-0500]: 22
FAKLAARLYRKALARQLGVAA [MMI-0300]: 77
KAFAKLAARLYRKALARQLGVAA [MMI-0400]: 75

====

molecular target: Tie2(h) (Homo sapiens, UniProt Q02763); test: Kinase Profiling Assay; assay type: biochemical; conditions: 100 μM
Sequence (Q02763 23-1124): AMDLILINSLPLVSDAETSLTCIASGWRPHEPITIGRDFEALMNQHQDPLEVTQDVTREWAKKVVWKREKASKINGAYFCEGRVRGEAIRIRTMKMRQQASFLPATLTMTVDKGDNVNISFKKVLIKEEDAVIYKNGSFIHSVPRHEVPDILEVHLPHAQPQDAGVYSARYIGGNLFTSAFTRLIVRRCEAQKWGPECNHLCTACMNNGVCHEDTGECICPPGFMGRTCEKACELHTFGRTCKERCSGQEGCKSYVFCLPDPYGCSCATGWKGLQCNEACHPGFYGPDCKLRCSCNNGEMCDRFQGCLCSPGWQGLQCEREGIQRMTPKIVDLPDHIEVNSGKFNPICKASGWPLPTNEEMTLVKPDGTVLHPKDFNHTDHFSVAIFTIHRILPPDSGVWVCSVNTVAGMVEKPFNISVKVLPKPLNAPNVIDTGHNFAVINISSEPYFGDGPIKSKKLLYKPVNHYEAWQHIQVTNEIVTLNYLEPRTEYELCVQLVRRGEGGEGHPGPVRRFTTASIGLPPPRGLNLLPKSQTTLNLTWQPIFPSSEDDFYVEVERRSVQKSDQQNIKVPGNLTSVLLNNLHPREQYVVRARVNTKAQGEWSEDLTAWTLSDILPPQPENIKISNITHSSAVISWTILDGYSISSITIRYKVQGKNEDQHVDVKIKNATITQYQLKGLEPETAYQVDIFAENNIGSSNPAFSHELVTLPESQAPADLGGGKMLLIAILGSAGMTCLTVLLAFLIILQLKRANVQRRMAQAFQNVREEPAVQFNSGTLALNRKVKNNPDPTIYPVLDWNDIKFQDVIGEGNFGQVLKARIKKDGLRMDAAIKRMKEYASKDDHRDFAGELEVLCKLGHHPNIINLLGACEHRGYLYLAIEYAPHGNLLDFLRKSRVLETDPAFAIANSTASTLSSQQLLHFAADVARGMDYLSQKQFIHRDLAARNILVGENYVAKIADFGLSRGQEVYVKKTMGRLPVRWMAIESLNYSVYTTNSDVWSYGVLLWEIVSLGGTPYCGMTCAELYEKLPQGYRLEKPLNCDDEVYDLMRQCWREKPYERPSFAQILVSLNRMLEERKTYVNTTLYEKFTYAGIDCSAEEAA
# % activity listing for each entry below
PROPERTY MEASURED: % activity (%)

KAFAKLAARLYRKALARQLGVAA [MMI-0400]: 21
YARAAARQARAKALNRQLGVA [MMI-0200]: 53
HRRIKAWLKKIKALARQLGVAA [MMI-0500]: 22
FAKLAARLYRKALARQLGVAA [MMI-0300]: 26

====

Listed sequences paired with reported % activity
target: PKCθ(h) (Homo sapiens, UniProt Q04759); assay: Kinase Profiling Assay; assay type: biochemical; conditions: 100 μM
Sequence (Q04759 whole entry): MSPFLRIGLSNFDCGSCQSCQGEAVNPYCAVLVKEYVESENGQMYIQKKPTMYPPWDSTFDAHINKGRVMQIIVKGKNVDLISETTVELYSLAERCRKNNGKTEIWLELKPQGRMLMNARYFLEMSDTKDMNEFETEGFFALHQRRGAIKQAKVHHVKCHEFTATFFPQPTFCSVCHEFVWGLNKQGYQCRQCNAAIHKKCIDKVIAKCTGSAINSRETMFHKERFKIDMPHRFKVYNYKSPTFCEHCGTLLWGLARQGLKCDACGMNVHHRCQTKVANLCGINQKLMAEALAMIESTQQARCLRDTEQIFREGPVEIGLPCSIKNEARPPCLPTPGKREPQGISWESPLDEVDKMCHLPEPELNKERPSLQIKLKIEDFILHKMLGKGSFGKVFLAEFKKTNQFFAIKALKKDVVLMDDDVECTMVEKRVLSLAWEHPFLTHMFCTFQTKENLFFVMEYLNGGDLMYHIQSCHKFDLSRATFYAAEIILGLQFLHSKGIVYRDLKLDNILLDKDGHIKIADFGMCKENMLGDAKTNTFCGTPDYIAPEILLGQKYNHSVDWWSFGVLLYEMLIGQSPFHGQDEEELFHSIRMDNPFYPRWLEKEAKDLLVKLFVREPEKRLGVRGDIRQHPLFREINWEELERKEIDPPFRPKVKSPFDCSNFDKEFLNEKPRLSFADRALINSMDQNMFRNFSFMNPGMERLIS
PROPERTY MEASURED: % activity (%)

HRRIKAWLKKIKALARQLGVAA [MMI-0500]: 62
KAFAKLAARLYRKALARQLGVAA [MMI-0400]: 76
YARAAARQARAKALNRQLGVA [MMI-0200]: 101
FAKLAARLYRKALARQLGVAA [MMI-0300]: 88

====

sequences and their reported % activity
target: WNK2(h) (Homo sapiens); test: Kinase Profiling Assay; format: biochemical; conditions: 100 μM
PROPERTY MEASURED: % activity (%)

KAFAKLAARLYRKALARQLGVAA [MMI-0400]: 54
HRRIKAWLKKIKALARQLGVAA [MMI-0500]: 8
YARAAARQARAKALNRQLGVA [MMI-0200]: 94
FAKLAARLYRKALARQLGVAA [MMI-0300]: 64

====

molecular target: AMPKα2(h) (Homo sapiens); test: Kinase Profiling Assay; format: biochemical; conditions: 100 μM
Sequence (P54646 whole entry): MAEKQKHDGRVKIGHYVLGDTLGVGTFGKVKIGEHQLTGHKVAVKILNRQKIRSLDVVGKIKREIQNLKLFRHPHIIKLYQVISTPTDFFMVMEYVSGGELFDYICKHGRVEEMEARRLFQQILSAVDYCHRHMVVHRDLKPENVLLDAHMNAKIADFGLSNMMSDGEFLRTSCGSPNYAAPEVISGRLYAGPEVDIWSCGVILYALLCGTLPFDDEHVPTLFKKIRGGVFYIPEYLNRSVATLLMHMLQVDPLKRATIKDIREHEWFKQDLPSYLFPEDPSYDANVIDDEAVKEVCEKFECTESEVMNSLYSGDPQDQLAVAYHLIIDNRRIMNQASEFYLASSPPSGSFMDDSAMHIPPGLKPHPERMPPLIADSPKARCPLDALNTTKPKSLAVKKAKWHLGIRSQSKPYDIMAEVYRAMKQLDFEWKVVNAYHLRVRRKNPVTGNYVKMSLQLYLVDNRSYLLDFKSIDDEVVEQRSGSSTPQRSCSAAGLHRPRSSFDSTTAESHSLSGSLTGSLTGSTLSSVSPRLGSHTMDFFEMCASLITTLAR
Sequence (Q9Y478 whole entry partner): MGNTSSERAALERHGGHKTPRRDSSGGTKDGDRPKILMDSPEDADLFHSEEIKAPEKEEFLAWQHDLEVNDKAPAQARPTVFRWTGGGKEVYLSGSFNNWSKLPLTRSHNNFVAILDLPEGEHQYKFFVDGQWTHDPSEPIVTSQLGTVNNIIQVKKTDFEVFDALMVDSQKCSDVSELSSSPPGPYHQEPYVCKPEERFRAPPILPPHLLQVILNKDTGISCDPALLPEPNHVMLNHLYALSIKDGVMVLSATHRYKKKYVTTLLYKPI
Sequence (P54619 whole entry partner): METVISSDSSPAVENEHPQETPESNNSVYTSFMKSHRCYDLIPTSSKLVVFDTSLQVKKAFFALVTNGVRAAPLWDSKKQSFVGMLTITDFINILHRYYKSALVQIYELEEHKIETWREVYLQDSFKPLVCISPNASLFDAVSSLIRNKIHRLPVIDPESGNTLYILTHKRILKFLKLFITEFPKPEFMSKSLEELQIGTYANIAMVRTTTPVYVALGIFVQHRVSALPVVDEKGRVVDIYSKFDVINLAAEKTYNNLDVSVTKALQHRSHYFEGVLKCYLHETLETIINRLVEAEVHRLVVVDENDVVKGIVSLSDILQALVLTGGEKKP
Reported % activity values are given for each entry in this list.
PROPERTY MEASURED: % activity (%)

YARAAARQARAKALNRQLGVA [MMI-0200]: 88
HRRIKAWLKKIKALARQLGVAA [MMI-0500]: 9
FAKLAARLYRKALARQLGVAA [MMI-0300]: 54
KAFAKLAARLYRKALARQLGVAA [MMI-0400]: 58

====

molecular target: Rsk4(h) (Homo sapiens, UniProt Q9UK32); experiment: Kinase Profiling Assay; assay type: biochemical; conditions: 100 μM
Sequence (Q9UK32 whole entry): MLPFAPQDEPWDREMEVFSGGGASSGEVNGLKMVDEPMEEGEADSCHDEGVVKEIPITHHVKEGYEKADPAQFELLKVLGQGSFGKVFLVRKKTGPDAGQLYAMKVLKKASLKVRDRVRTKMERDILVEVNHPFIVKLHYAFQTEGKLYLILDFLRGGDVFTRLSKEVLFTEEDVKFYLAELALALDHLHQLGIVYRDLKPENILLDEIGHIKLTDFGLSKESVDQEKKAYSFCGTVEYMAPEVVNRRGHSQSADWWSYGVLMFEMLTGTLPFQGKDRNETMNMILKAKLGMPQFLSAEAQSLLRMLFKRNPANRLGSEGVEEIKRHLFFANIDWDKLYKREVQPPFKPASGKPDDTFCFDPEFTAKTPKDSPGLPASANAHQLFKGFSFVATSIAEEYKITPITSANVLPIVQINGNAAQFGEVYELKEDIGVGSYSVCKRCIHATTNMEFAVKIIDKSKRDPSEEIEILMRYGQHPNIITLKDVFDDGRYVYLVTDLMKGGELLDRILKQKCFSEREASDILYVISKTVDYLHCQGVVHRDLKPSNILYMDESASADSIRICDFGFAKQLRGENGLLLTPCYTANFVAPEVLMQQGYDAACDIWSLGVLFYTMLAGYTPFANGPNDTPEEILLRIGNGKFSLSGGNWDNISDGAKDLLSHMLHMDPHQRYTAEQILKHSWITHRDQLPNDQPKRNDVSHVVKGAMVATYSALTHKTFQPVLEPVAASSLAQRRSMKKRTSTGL
PROPERTY MEASURED: % activity

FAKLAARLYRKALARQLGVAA [MMI-0300]: 90%
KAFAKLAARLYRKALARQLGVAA [MMI-0400]: 91%
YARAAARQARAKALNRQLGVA [MMI-0200]: 125%
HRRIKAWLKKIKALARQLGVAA [MMI-0500]: 29%

====

molecular target: Pim-3(h) (Homo sapiens); test: Kinase Profiling Assay; assay type: biochemical; details: 100 μM
PROPERTY MEASURED: % activity (%)

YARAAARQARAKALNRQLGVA [MMI-0200]: 94
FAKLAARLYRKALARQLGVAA [MMI-0300]: 80
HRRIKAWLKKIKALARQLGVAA [MMI-0500]: 37
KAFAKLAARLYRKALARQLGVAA [MMI-0400]: 80

====

Biological target: GRK7(h) (Homo sapiens, UniProt Q8WTQ7)
Sequence (Q8WTQ7 1-553): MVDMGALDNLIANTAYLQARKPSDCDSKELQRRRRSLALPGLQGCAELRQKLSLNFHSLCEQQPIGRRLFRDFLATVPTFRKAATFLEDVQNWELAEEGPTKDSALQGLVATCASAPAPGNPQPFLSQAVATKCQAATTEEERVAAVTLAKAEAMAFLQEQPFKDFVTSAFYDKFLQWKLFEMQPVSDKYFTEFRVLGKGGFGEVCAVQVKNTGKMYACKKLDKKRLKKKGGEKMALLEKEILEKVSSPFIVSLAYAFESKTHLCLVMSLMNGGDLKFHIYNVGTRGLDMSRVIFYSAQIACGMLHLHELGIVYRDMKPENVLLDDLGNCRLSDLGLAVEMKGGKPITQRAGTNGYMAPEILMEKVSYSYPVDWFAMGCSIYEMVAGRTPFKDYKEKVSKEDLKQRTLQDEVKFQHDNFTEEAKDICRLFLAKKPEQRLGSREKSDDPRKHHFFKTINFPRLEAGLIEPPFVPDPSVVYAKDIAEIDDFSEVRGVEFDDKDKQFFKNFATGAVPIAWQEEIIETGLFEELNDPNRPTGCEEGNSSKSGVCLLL
Assay: Kinase Profiling Assay
Type: biochemical
Conditions: 100 μM
PROPERTY MEASURED: % activity

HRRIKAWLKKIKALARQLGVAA [MMI-0500]: 93%
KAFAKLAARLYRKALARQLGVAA [MMI-0400]: 100%
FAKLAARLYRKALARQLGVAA [MMI-0300]: 122%
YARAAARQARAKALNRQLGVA [MMI-0200]: 124%

====

Target: ARK5(h) (Homo sapiens, UniProt O60285)
Sequence (O60285 1-661): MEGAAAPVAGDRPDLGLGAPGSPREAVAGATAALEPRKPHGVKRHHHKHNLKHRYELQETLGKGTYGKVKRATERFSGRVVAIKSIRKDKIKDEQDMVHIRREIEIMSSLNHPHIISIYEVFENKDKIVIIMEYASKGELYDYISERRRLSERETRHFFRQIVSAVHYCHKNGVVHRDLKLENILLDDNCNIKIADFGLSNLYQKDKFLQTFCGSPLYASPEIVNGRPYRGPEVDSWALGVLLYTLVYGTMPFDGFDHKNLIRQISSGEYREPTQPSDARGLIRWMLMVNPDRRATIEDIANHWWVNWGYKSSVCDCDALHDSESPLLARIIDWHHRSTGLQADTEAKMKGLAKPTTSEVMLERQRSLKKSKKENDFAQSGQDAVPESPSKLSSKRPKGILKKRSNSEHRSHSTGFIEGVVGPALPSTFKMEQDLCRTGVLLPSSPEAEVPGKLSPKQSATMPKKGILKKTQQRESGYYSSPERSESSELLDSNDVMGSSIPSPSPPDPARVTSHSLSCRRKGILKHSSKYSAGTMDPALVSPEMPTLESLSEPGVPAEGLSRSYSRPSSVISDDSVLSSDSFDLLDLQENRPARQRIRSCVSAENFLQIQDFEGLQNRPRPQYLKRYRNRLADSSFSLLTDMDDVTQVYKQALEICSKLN
Experiment: Kinase Profiling Assay
Assay type: biochemical
Details: 100 μM
# % activity values compiled below
PROPERTY MEASURED: % activity (%)

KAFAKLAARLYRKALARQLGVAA [MMI-0400]: 69
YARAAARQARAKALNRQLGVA [MMI-0200]: 93
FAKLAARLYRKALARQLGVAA [MMI-0300]: 78
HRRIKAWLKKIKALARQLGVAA [MMI-0500]: 20

====

target: Met(D1246H)(h) (Homo sapiens, UniProt P08581, D1228H); assay: Kinase Profiling Assay; type: biochemical; details: 100 μM
Each entry below carries its recorded % activity.
PROPERTY MEASURED: % activity (%)

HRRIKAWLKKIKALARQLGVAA [MMI-0500]: 150
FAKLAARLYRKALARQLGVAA [MMI-0300]: 125
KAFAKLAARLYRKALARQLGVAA [MMI-0400]: 68
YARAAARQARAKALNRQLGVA [MMI-0200]: 139
